S E (kon) by entry:
tgt: T1, human p40-His (human, UniProt P29460 23-328)
T1 construct: Made by Akeso Biopharma; construct limits and tag not described; also called human IL-12/IL-23 p40 protein domain; human IL-12/IL-23 p40; not shown: His tag
T1 sequence (looked up): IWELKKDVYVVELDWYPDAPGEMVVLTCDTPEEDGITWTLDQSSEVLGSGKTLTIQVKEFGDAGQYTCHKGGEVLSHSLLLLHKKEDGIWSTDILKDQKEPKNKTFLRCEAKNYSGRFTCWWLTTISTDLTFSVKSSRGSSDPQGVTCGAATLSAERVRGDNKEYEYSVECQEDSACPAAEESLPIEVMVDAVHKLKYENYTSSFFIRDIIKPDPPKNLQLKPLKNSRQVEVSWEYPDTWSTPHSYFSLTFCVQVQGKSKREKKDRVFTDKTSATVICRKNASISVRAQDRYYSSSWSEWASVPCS
protocol: BLI (Fortebio), p40-His on HIS1K sensor, antibody 5-0.31 nM, 37 °C, 1:1 fit
reported.endpoint: S E (kon) (M⁻¹ s⁻¹)

>  <binder>
H5L12 (antibody, human IgG1, kappa, V domains shown, human IgG1 / kappa constant regions; also called humanized antibody H5L12) VH: EVQLVQSGAEVKKPGESLKISCQSSGYSFTTYWIGWVRQMPGQGLEWIGIMSPVDSDIRYNPMFRGQVTMSVDKSSSTAYLQWSSLKASDTAMYYCARRRPGQGYFDFWGQGTMVTVSS VL: EIVLTQSPATLSASPGERATISCRASQSVSSWLAWYQQKPGQAPRSLIYAASNRQSGIPARFSGSGSGTDFTLTISSLEPEDFAVYYCQQYNIYPYTFGQGTRLEIKR

>  <measured.result>
212000

$$$$
>  <binder>
H5L10 (antibody, human IgG1, kappa, V domains shown, human IgG1 / kappa constant regions; also called humanized antibody H5L10) VH: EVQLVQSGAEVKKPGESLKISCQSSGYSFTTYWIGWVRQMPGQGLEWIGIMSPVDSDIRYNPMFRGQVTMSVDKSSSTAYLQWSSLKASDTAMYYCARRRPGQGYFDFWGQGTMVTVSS VL: EIVLTQSPATLSASPGERATISCRASQSVGSWLAWYQQKPGQAPRSLIYAASNLQSGIPARFSGSGSGTDFTLTISSLEPEDFAVYYCQQYNIYPYTFGQGTRLEIKR

>  <measured.result>
364000

$$$$
>  <binder>
H5L9 (antibody, human IgG1, kappa, V domains shown, human IgG1 (P01857) / kappa (P01834) constant regions; also called humanized antibody H5L9) VH: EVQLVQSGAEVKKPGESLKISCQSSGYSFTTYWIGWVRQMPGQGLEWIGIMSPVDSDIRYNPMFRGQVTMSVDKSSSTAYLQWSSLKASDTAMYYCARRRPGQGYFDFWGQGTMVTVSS VL: DIQMTQSPSSLSASVGDRVTITCKASQNVGSWLAWYQQKPGKAPKSLIYSASSRQSGVPSRFSGSGSGTDFTLTISSLQPEDFATYYCQQYDIYPFTFGQGTKLEIKR

>  <measured.result>
850000

$$$$
>  <binder>
H8L15 (antibody, human IgG1, kappa, V domains shown, human IgG1 (P01857) / kappa (P01834) constant regions; also called anti-human IL-12/IL-23 p40 antibody H8L15; H8L15H1L1) VH: EVQLVQSGAEVKKPGESLKISCQSSGYTFTSYWIGWVRQMPGQGLEWIGIMSPVDSDIRYNPMFRGQVTMSVDKSSSTAYLQWSSLKASDTAMYYCARRRPGQGYFDFWGQGTMVTVSS VL: EIVLTQSPATLSASPGERATISCRASQSVGTWVAWYQQKPGQAPRSLIYAASNLQSGIPARFSGSGSGTDFTLTISSLEPEDFAVYYCQQYNIYPYTFGQGTRLEIKR

>  <measured.result>
213000

$$$$
>  <binder>
H5L11 (antibody, human IgG1, kappa, V domains shown, human IgG1 / kappa constant regions; also called humanized antibody H5L11) VH: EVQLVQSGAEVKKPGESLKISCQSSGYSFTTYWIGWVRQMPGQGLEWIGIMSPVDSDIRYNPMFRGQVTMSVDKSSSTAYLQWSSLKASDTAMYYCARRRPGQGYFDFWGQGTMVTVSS VL: EIVLTQSPATLSASPGERATISCRASQSVSSWLAWYQQKPGQAPRSLIYSASNLQSGIPARFSGSGSGTDFTLTISSLEPEDFAVYYCQQYNIYPYTFGQGTRLEIKR

>  <measured.result>
232000

$$$$
>  <binder>
H5L14 (antibody, human IgG1, kappa, V domains shown, human IgG1 / kappa constant regions; also called humanized antibody H5L14) VH: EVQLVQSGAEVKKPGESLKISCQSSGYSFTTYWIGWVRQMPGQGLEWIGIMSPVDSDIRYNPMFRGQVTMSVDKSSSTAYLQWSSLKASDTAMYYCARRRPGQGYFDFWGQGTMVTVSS VL: EIVLTQSPATLSASPGERATISCRASQSVSSWLAWYQQKPGQAPRSLIYAASNLQSGIPARFSGSGSGTDFTLTISSLEPEDFAVYYCQQYNIYPFTFGQGTRLEIKR

>  <measured.result>
236000

$$$$
>  <binder>
ustekinumab (antibody, V domains shown) VH: EVQLVQSGAEVKKPGESLKISCKGSGYSFTTYWLGWVRQMPGKGLDWIGIMSPVDSDIRYSPSFQGQVTMSVDKSITTAYLQWNSLKASDTAMYYCARRRPGQGYFDFWGQGTLVTVSS VL: DIQMTQSPSSLSASVGDRVTITCRASQGISSWLAWYQQKPEKAPKSLIYAASSLQSGVPSRFSGSGSGTDFTLTISSLQPEDFATYYCQQYNIYPYTFGQGTKLEIK

>  <measured.result>
251000

$$$$

The reported measurements were obtained from patent US20220298235A1.
